# methodNotes: Clearance in rat plasma at 1 mg/kg, iv and 5 mg/kg, po
# Type: ADME, organism-based
observable: clearance (mL/min/kg)
Answer with a number only, understood to be in mL/min/kg.

Requested read-out: clearance. Entry: `Cc1cc2ncc(C(=O)N3CCC([C@H](N)Cc4cc(F)c(F)cc4F)CC3)c(C)n2n1` 18

Where do the numbers come from? From ChEMBL document CHEMBL1153974.
